experiment: Absorption spectrum by UV-visible spectrophotometer; assay type: physicochemical; conditions: measured in ethanol
For each entry below, report its λmax (maximum absorption wavelength) value.
Numbers only, in nm.

# MOLECULE, λmax (maximum absorption wavelength), nm
rows = [
    ("CCCCCCCNc1cc2c(c3sccc13)=Nc1ccc(N(CC)CC)cc1S=2Cl (centres unmarked) [Compound I-5]", 674),
    ("CCCNc1cc2c(c3sccc13)=Nc1ccc(N(CC)CC)cc1S=2Cl (centres unmarked) [Compound I-3]", 673),
    ("CCN(CC)c1ccc2c(c1)S(Cl)=c1cc(N)c3ccsc3c1=N2 (centres unmarked) [Compound I-1]", 663),
    ("CCN(CC)c1ccc2c(c1)S(Cl)=c1cc(NC)c3ccsc3c1=N2 (centres unmarked) [Compound I-2]", 671),
]

Now take the following molecule into account.
λmax (maximum absorption wavelength) reading for CCCCCNc1cc2c(c3sccc13)=Nc1ccc(N(CC)CC)cc1S=2Cl (centres unmarked) [Compound I-4] : 673
